Biological target: BACE1 enzyme (Homo sapiens, UniProt P56817)
Construct: The HEK293-9B.A1 cell line, which overexpresses the BACE1 enzyme, was derived from HEK293 cells; endogenous in cells; washed 48,000 x g pellet of the cell homogenate
Sequence (P56817 46-501): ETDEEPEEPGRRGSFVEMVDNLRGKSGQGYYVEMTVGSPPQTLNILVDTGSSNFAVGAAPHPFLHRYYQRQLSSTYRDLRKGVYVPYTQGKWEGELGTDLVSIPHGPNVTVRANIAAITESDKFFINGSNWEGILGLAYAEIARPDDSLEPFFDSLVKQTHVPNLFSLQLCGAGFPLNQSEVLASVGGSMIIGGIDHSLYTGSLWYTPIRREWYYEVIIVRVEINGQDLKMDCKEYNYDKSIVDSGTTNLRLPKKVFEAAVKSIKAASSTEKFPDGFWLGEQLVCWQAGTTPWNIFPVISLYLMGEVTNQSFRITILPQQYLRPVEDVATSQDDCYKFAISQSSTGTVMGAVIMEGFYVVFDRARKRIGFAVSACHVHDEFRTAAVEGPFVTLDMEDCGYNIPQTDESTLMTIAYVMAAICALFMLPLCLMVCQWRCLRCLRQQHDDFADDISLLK
Assay: Radioligand displacement assay with a radiolabeled BACE inhibitor on HEK293-9B.A1 cell homogenate
Assay type: binding
Settings: displacement of 1 nM tritiated radioligand, HEK293-9B.A1 homogenate, pH 5.0, 1.5 hr at 25° C.; read-out: Activity Rating (activity based on IC50 values)
Counter-ions that a name gives are not always drawn.
assayMetric: IC50

[
  {
    "compound": "COc1cccc(CNC[C@@H](O)[C@H](Cc2cc(F)cc(F)c2)NC(=O)c2cc(/C(C)=N/OCC(C)C)cc(N(c3ccccc3)S(C)(=O)=O)c2)c1",
    "assayMetric": "IC50",
    "endpointResult": "100 to 1000 nM"
  },
  {
    "compound": "COc1cccc(CNC[C@@H](O)[C@H](Cc2cc(F)cc(F)c2)NC(=O)c2cc(C(C)O)cc(N3CCCCS3(=O)=O)c2)c1 (some centres unmarked) [Example 23, TFA salt]",
    "assayMetric": "IC50",
    "endpointResult": "< 100 nM"
  },
  {
    "compound": "C=CCO/N=C(\\C)c1cc(C(=O)N[C@@H](Cc2cc(F)cc(F)c2)[C@H](O)CNCc2cccc(OC)c2)cc(S(C)(=O)=O)c1 [Example 21, TFA salt]",
    "assayMetric": "IC50",
    "endpointResult": "100 to 1000 nM"
  },
  {
    "compound": "CCCN(CCC)C(=O)c1cc(C(C)=O)cc(C(=O)N[C@@H](Cc2cc(F)cc(F)c2)[C@H](O)CNCc2cccc(OC)c2)c1 [Example 1, TFA salt]",
    "assayMetric": "IC50",
    "endpointResult": "< 100 nM"
  },
  {
    "compound": "CCCO/N=C(\\C)c1cc(C(=O)N[C@@H](Cc2cc(F)cc(F)c2)[C@H](O)CNCc2cccc(OC)c2)cc(N2CCCCS2(=O)=O)c1 [Example 26, TFA salt]",
    "assayMetric": "IC50",
    "endpointResult": "< 100 nM"
  }
]
